- Test system: lipase (EC 3.1.1.3)
- Protocol text: lipase sensitivity
- Format: biochemical
- Condition label: 100 μl lipase about 100 U/l; 578 nm
Known lipase sensitivity (activity 100 U/l) of a selection of compounds

Worked cases, answers included:
{"columns": ["Compound", "lipase sensitivity (activity 100 U/l)"],
 "data": [
  ["CCCCCCCCCCCOCC(COC(=O)CCCC(=O)Oc1ccc2nc3ccc(=O)cc-3oc2c1)OCCCCCCCCCCC (racemic)", "6.96 ΔmE/min"],
  ["CCCCCCCCCCCCOCC(COC(=O)CCCCCCCC(=O)Oc1ccc2nc3ccc(=O)cc-3oc2c1)OCCCCCCCCCCCC (racemic)", "13.2 ΔmE/min"],
  ["CCCCCCCCCCOCC(COC(=O)CCCC(=O)Oc1ccc2nc3ccc(=O)cc-3oc2c1)OCCCCCCCCCC (racemic)", "22.18 ΔmE/min"],
  ["CCCCCCCCOCC(COC(=O)CCCCCC(=O)Oc1ccc2nc3ccc(=O)cc-3oc2c1)OCCCCCCCC (racemic)", "12.28 ΔmE/min"],
  ["CCCCCCCCOCC(COC(=O)CCCC(=O)Oc1ccc2nc3ccc(=O)cc-3oc2c1)OCCCCCCCC (racemic)", "~ 100 ΔmE/min"],
  ["CCCCCCCCOCC(COC(=O)CCCCCCCC(=O)Oc1ccc2nc3ccc(=O)cc-3oc2c1)OCCCCCCCC (racemic)", "18.04 ΔmE/min"]
]}

Retrieve lipase sensitivity (activity 100 U/l) measured for CCCCCCCCCCCCOCC(COC(=O)CCCCCC(=O)Oc1ccc2nc3ccc(=O)cc-3oc2c1)OCCCCCCCCCCCC (racemic) and print it. 4.68 ΔmE/min

Retrieve lipase sensitivity (activity 100 U/l) measured for CCCCCCCCCCCCCCCCOC[C@H](COC(=O)CCCC(=O)Oc1ccc2nc3ccc(=O)cc-3oc2c1)OCCCCCCCCCCCCCCCC and print it. 0.97 ΔmE/min

Retrieve lipase sensitivity (activity 100 U/l) measured for CCCCCCCCCCCCOCC(COC(=O)CCCC(=O)Oc1ccc2nc3ccc(=O)cc-3oc2c1)OCCCCCCCCCCCC (racemic) and print it. 10.9 ΔmE/min

Retrieve lipase sensitivity (activity 100 U/l) measured for CCCCCCCCCCOCC(COC(=O)CCCCCC(=O)Oc1ccc2nc3ccc(=O)cc-3oc2c1)OCCCCCCCCCC (racemic) and print it. 9.8 ΔmE/min

---

- Protocol text: blank change (water instead of sample)
- Assay type: physicochemical
- Condition label: 100 μl water instead of sample; extinction change at 578 nm
- Experimental: 1.2 g. Sodium desoxycholate and 0.15 mg. colipase (from the pig) are dissolved in 60 ml. distilled water, with stirring. […] 2.5 ml. of the so produced solution are mixed with 100 μ. of sample (serum). The reaction is monitored photometrically at 578 nm Hg. The blank change was determined with a reagent according to Example 1 and various lipase substrates. Instead of the sample, 100 μ1. water were added and the extinction change monitored photometrically at 578 nm (ΔmE/min.).
Readout name: blank

Worked cases, answers included:
{"columns": ["Compound", "Result value"],
 "data": [
  ["CCCCCCOCC(COC(=O)CCCC(=O)Oc1ccc2nc3ccc(=O)cc-3oc2c1)OCCCCCC (racemic) [Example 1]", "13.2 ΔmE/min"],
  ["CCCCCCCCOCC(COC(=O)CCCC(=O)Oc1ccc2nc3ccc(=O)cc-3oc2c1)OCCCCCCCC (racemic) [Example 2]", "7.0 ΔmE/min"],
  ["CCCCCCCCCCOCC(COC(=O)CCCCCC(=O)Oc1ccc2nc3ccc(=O)cc-3oc2c1)OCCCCCCCCCC (racemic) [Example 20]", "1.3-2.0 ΔmE/min"],
  ["CCCCCCCCCCCCCCCCOC[C@H](COC(=O)CCCC(=O)Oc1ccc2nc3ccc(=O)cc-3oc2c1)OCCCCCCCCCCCCCCCC [Example 11]", "0.1 ΔmE/min"]
]}

Retrieve blank measured for CCCCCCCCOCC(COC(=O)CCCCCC(=O)Oc1ccc2nc3ccc(=O)cc-3oc2c1)OCCCCCCCC (racemic) [Example 3] and print it. 3.9-4.1 ΔmE/min
